System: Daoy (glioblastoma)
assay-comment: MTS cell viability assay, Daoy
Assay type: cell-based
measurement-parameters: Homo sapiens, Daoy, 72 h incubation
Recorded pIC50 by entry
Note on units: pIC50 is unitless, being -log10 of a concentration expressed in mol/L.

As a guide, the following entries are already answered.
C=C(CO)[C@@H]1CC[C@]2(COC(C)=O)CC[C@]3(C)[C@H](CC[C@@H]4[C@@]5(C)CC[C@H](O)C(C)(COC(C)=O)[C@@H]5CC[C@]43C)[C@@H]12 (stereo partly shown) [Compound 43e]    4.80
C=C(CO)[C@@H]1CC[C@]2(C#N)CC[C@]3(C)[C@H](CC[C@@H]4[C@@]5(C)CCC(N)C(C)(CO)[C@@H]5CC[C@]43C)[C@@H]12 (stereo partly shown) [Compound 44d]    4.14
C=C(C=O)[C@@H]1CC[C@]2(COC(C)=O)CC[C@]3(C)[C@H](CC[C@@H]4[C@@]5(C)CCC(=O)C(C)(COC(C)=O)[C@@H]5CC[C@]43C)[C@@H]12 (stereo partly shown) [Compound 49a]    5.05
C=C(C)[C@@H]1CC[C@]2(COC(C)=O)CC[C@]3(C)[C@H](CC[C@@H]4[C@@]5(C)CCC(=O)C(C)(COC(C)=O)[C@@H]5CC[C@]43C)[C@@H]12 (stereo partly shown) [Compound 38]    4.51
C=C(C)[C@@H]1CC[C@]2(C#N)CC[C@]3(C)[C@H](CC[C@@H]4[C@@]5(C)CCC(=NOC(C)=O)C(C)(COC(C)=O)[C@@H]5CC[C@]43C)[C@@H]12 (stereo partly shown) [Compound 35]    4.51

// query Give the reported pIC50 for C=C(C)[C@@H]1CC[C@]2(COC(C)=O)CC[C@]3(C)[C@H](CC[C@@H]4[C@@]5(C)CCC(=O)C(C)(CO)[C@@H]5CC[C@]43C)[C@@H]12 (stereo partly shown) [Compound 18c] (system: Daoy (glioblastoma)).
// result 4.80

// query What would you report for C=C(C)[C@@H]1CC[C@]2(C(=O)O)CC[C@]3(C)[C@H](CC[C@@H]4[C@@]5(C)CCC(=O)C(C)(CO)[C@@H]5CC[C@]43C)[C@@H]12 (stereo partly shown) [Compound 4, 23-hydroxybetulonic acid, reference compound] ?
// result 4.23

// query What would you report for C=C(C)[C@@H]1CC[C@]2(C(=O)O)CC[C@]3(C)[C@H](CC[C@@H]4[C@@]5(C)CCC(N)C(C)(CO)[C@@H]5CC[C@]43C)[C@@H]12 (stereo partly shown) [Compound 22] ?
// result 4.42

---

Test system: Daoy (glioblastoma)
assay-comment: MTS cell viability assay, Daoy
Assay type: cell-based
measurement-parameters: Homo sapiens, Daoy, 72 h incubation
Procedure: Cells were plated, the evening before treatment, for each treatment on 96-well plates (1×10^4 cells/well) in 100 μL volume per well. […] Cells were treated by aspirating plating media from each well and adding 80 μL of betulinic acid (control) or each analog solution in serial dilutions to the adherent cells. […] Absorbances at 490 nm were measured on a Wallac Victor II plate reader at multiple time points following the addition of MTS reagent for each plate. […]
measurement-label: IC50 (µM)
Enter your answer as a number in µM; do not include the unit.

As a guide, the following entries are already answered.
C=C(C)[C@@H]1CC[C@]2(CO)CC[C@]3(C)[C@H](CC[C@@H]4[C@@]5(C)CCC(N)C(C)(CO)[C@@H]5CC[C@]43C)[C@@H]12 (some centres unmarked)    2
C=C(C)[C@@H]1CC[C@]2(COC(C)=O)CC[C@]3(C)[C@H](CC[C@@H]4[C@@]5(C)CCC(NC(C)=O)C(C)(COC(C)=O)[C@@H]5CC[C@]43C)[C@@H]12 (some centres unmarked)    38

// query Please give the measured IC50 for this molecule: C=C(CO)[C@@H]1CC[C@]2(COC(C)=O)CC[C@]3(C)[C@H](CC[C@@H]4[C@@]5(C)CCC(=O)C(C)(COC(C)=O)[C@@H]5CC[C@]43C)[C@@H]12 (some centres unmarked) [Compound 40c]
// result 56

// query What would you report for C=C(C)[C@@H]1CC[C@]2(C#N)CC[C@]3(C)[C@H](CC[C@@H]4[C@@]5(C)CCC(N)C(C)(CO)[C@@H]5CC[C@]43C)[C@@H]12 (some centres unmarked) ?
// result 17

// query What would you report for C=C(CO)[C@@H]1CC[C@]2(C#N)CC[C@]3(C)[C@H](CC[C@@H]4[C@@]5(C)CCC(=NOC(C)=O)C(C)(COC(C)=O)[C@@H]5CC[C@]43C)[C@@H]12 (some centres unmarked) [Compound 39d] ?
// result 33

// query What would you report for C=C(C)[C@@H]1CC[C@]2(C=NO)CC[C@]3(C)[C@H](CC[C@@H]4[C@@]5(C)CCC(=NO)C(C)(CO)[C@@H]5CC[C@]43C)[C@@H]12 (some centres unmarked) ?
// result 5

// query What would you report for C=C(C)[C@@H]1CC[C@]2(COC(C)=O)CC[C@]3(C)[C@H](CC[C@@H]4[C@@]5(C)CCC(=NO)C(C)(CO)[C@@H]5CC[C@]43C)[C@@H]12 (some centres unmarked) [Compound 17c] ?
// result 16

// query What would you report for C=C(CO)[C@@H]1CC[C@]2(CO)CC[C@]3(C)[C@H](CC[C@@H]4[C@@]5(C)CCC(N)C(C)(CO)[C@@H]5CC[C@]43C)[C@@H]12 (some centres unmarked) [Compound 44b] ?
// result 18

// query What would you report for C=C(C)[C@@H]1CC[C@]2(CO)CC[C@]3(C)[C@H](CC[C@@H]4[C@@]5(C)CCC(=O)C(C)(CO)[C@@H]5CC[C@]43C)[C@@H]12 (some centres unmarked) [Compound 18b] ?
// result 34
